TESTED SYSTEM: NLRP3 inflammasome (Homo sapiens)
Construct: host or cells: THP-1 human monocytic cells, PMA-treated, stimulated with gramicidin
ASSAY EXPLANATION: ASC-SPECK formation in THP-1 cells after gramicidin stimulation (NLRP3 inflammasome activation)
Type: cell-based
SETTINGS: PMA-treated human monocytic THP-1 cells, compound 1 h before 12.5 ug/ml gramicidin, 3 h, ASC SPECK imaging; read-out: EC50 (nM) for Examples that inhibit NLRP3 inflammasome activation
VALUE TYPE: EC50 (nM)

Example cases with answers are listed next.
# COMPOUND, EC50 / nM
records = [
    ("Cc1ccc2c(-c3ccc(C(F)(F)F)cc3O)nnc(N3C[C@@H](C)O[C@@H](C)C3)c2c1 (single isomer, unassigned)", 33),
    ("O=C1COC2(CCN(c3nnc(-c4ccc(C(F)(F)F)cc4O)c4cccnc34)CC2)CN1", 330),
    ("Cc1cccc2c(-c3ccc(C(F)(F)F)cc3O)nnc(N3C[C@@H](C)O[C@@H](C)C3)c12", 734),
    ("C[C@]1(O)CCN(c2nnc(-c3ccc(C(F)(F)F)cc3O)c3ccc(C(F)(F)F)nc23)C1", 621),
    ("CN1CC2(CCN(c3nnc(-c4ccc(C(F)(F)F)cc4O)c4cccnc34)CC2)OC1=O", 742),
]

a. C[C@@H]1C[C@@](O)(c2nnc(-c3ccc(C(F)(F)F)cc3O)c3cccnc23)C[C@H](C)O1
b. C[C@@H]1CN(c2nnc(-c3ccc4occc4c3)c3ccncc23)C[C@H](C)O1
Ask | Lab notebook, comparison: a versus b , higher EC50 goes to which? Pick one; state its label.
Reply | a

* * *

TESTED SYSTEM: NLRP3 inflammasome (Homo sapiens, UniProt Q96P20)
Construct: host or cells: THP-1 human monocytic cells, PMA-treated, stimulated with gramicidin
Sequence (Q96P20 whole entry): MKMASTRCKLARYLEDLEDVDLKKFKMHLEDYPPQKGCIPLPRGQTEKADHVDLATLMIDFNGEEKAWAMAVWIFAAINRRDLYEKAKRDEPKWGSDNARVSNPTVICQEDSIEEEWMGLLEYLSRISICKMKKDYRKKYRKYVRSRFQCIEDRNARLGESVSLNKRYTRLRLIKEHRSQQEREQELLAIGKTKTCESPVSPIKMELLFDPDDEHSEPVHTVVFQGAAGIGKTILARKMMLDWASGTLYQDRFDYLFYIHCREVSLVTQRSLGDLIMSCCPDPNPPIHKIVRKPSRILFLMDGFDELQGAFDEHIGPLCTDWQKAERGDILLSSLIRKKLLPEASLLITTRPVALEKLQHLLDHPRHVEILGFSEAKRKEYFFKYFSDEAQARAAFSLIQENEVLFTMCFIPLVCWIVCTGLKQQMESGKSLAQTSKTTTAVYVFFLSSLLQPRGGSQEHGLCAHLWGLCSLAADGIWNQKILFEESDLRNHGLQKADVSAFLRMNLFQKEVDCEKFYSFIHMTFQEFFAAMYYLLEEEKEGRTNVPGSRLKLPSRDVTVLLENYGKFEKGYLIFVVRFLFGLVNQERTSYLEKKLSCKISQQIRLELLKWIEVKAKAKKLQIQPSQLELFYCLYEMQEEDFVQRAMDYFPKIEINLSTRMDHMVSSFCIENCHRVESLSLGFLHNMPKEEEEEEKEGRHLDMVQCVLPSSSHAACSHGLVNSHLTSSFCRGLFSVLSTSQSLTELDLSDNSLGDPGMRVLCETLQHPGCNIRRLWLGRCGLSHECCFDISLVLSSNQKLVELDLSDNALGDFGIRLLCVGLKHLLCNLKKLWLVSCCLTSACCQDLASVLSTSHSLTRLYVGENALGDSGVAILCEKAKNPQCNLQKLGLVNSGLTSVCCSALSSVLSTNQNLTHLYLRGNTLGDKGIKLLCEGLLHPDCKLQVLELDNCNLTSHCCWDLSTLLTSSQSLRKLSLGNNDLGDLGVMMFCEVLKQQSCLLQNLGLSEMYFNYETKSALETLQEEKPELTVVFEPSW
ASSAY EXPLANATION: ASC-SPECK formation in THP-1 cells after gramicidin stimulation (NLRP3 inflammasome activation)
Format: cell-based
SETTINGS: PMA-treated human monocytic THP-1 cells, compound 1 h before 12.5 ug/ml gramicidin, 3 h, ASC SPECK imaging; read-out: EC50 (nM) for Examples that inhibit NLRP3 inflammasome activation
VALUE TYPE: EC50 (nM)

Example cases with answers are listed next.
# COMPOUND, MEASUREMENT UNIT, EC50
measured = [
    ("CC(=O)N1CCC2(CCN(c3nnc(-c4ccc(C(F)(F)F)cc4O)c4cccnc34)CC2)C1 [Example 35]", "nM", 420),
    ("C[C@]1(O)CCN(c2nnc(-c3ccc(C(F)(F)F)cc3O)c3cc(C(F)F)cnc23)C1 [Example 57]", "nM", 1570),
    ("C[C@@H]1CN(c2nnc(-c3ccc(C(F)(F)F)cc3O)c3cccnc23)C[C@H](C)[C@]1(C)O [Example 24]", "nM", 52),
    ("Oc1cc(C(F)(F)F)ccc1-c1nnc(N2CCC(O)(C(F)F)C2)c2ncccc12 (racemic) [Example 28]", "nM", 447),
    ("Oc1cc(C(F)(F)F)ccc1-c1nnc(N2CC(O)C(F)(F)C2)c2ncccc12 (racemic) [Example 43]", "nM", 482),
    ("CC1(CO)CCN(c2nnc(-c3ccc(C(F)(F)F)cc3O)c3cccnc23)C1 (racemic) [Example 48]", "nM", 411),
]

1. Cc1ccc2c(N3C[C@@H](C)O[C@@H](C)C3)nnc(-c3ccc(C(F)(F)F)cc3O)c2c1 [Example 21]
2. Oc1cc(C(F)(F)F)ccc1-c1nnc(N2CCC3(CCCO3)CC2)c2ncccc12 [Example 30]
3. CCC1(O)CCN(c2nnc(-c3ccc(C(F)(F)F)cc3O)c3cccnc23)C1 (racemic) [Example 47]
4. C[C@@H]1CN(c2nnc(-c3ccc(C(F)(F)F)cc3O)c3cnccc23)C[C@H](C)[C@]1(C)O [Example 17]
Ask | Sort (4 compounds) by EC50: min first. Put the labels in the order asked and list them.
Reply | 4, 3, 1, 2
(4: 201 nM, 3: 494 nM, 1: 815 nM, 2: 1270 nM)

a. CC1CN(c2nnc(-c3ccc(C(F)(F)F)cc3O)c3cccnc23)CC(CO)O1 (single isomer, unassigned) [Example 51]
b. C[C@@H]1CN(c2nnc(-c3ccc(C(F)(F)F)cc3OC(F)F)c3cccnc23)C[C@H](C)O1 [Example 3]
c. CN1CC[C@H]2CCN(c3nnc(-c4ccc(C(F)(F)F)cc4O)c4cccnc34)[C@H]2C1 [Example 23]
Ask | Sort (3 compounds) by EC50: min first. Put the labels in the order asked and list them.
Reply | c, a, b
